# Tested on: Saccharomyces cerevisiae
# experiment_notes: protein stability index of tFT-peptide fusion (C-terminal peptide) (PSI (0-1 scale)); higher = more stable (slower turnover)
# assay_context: genetic background: das1 deletion; temperature: 30 C
quantity_measured: protein stability index
Output spec: single numeric token, no unit.

Consider the following illustrative entries.
* PVRHQTGMHFCI [YHR032W-A C-terminal 12 aa] | 0.721
* ELPAQKSTVISE [GEP7 C-terminal 12 aa] | 0.733
* QEAGAFTFNEDF [RNR2 C-terminal 12 aa] | 0.726
* VVGRYMRSGLKK [NOP1 C-terminal 12 aa] | 0.67
* SWISKEKRVSEE [HXT2 C-terminal 12 aa] | 0.731
* VARRITDHTCLM [YLR364C-A C-terminal 12 aa] | 0.677
* GNAIREIKTYKY [GLY1 C-terminal 12 aa] | 0.687
* PLYSMVAGENSL [SPO23 C-terminal 12 aa] | 0.678

Field request: protein stability index | item: TEPVKQVLGNKE [NMA1 C-terminal 12 aa]
0.689

And what about the sequence TSLEKQINSIKK [NSP1 C-terminal 12 aa] ?
0.753

Same question for LLIQEEMKLKEV [YPK9 C-terminal 12 aa] please.
0.719

Another: RDRLVESCHFTQ [CIN4 C-terminal 12 aa]
0.722

* * *

A collection of sequences and their measured protein stability index
# Test system: Saccharomyces cerevisiae
# experiment_notes: protein stability index of tFT-peptide fusion (C-terminal peptide) (PSI (0-1 scale)); higher = more stable (slower turnover)
# assay_context: genetic background: cdc34-1; temperature: 37 C

• FLVFPLLIQFFL = 0.231
• GYVVYRRYILIR = 0.0341
• YLLTAFLSAFNP = 0.554
• ILFCVRIGLFWT = 0.0461
• FLFIFFFFLISF = 0.208

# query: protein stability index of entry PGSIGVVIAVRS
0.461

Another sequence to check: SVGWGFWARFIG
0.686

Do the same for ALEIIRLSHRLC please
0.498

Same again, this time with VGASLVVIAIGV
0.512

* * *

# Tested on: Saccharomyces cerevisiae
# experiment_notes: protein stability index of tFT-peptide fusion (C-terminal peptide) (PSI (0-1 scale)); higher = more stable (slower turnover)
# assay_context: genetic background: wild type; temperature: 30 C
protein stability index of 0.2 or higher: YES. Under 0.2: NO.

Previously resolved entries follow.
• RPRRARLPNFLA = NO
• NASWAFLCYFCV = YES
• NMRYRATIEACA = YES
• DECQLCNRDWRG = YES
• GGFRVLLWCVVW = YES
• WYAGIVFTRVWM = YES
• RLFYRLSFVYFL = NO
• IPLGLTLVQCLY = YES
• VFRECSFFLVCC = YES
• YDLRRIGRIGVG = YES

Dear colleague, could you confirm whether RSIVFRVSRRLN has protein stability index at or above 0.2?
NO

And SFTRYIFFLMFF ?
YES

Next: VGYSLFTFLFCA
YES

Now the same for IYLLLFFFSFSA
YES

Try the sequence SLVIRLNIRLIL
YES

Quick one: PILRGRPTPAIL
YES

What about this sequence? PIHILTHTYIGR
YES

Moving on to GFFFYFVLFGLS
YES

Continue with TCRLIQLTVTLH
YES

For RHIRGLNLIKLI then?
NO

What do you get for YSALHNPPQPVT ?
YES

Do the same for VVNFLVFRFFCI please
YES

Please give the result for VFFLSFIFRFFL too.
YES

Also CSPSCNIVRLVS , if possible.
NO

Continue with LFRFSRLFLFVL
NO

Moving on to the next sequence: FFCCFVFVLGFC
YES

Then what about the sequence LPNLPPTSPERH ?
YES

One more sequence: SVVVLHVHVRPP
YES

Another sequence: IIAVFRCCLRVY
NO

Request: GYVVYRRYILIR
NO

Now try FLVCTFCRWVWL .
NO

Cool, now GGGEGVVWVRLG
NO

Queued: GGVWVLGVAVVW
YES

Similarly, GGWSFSSLWKIA ?
NO

One more sequence: RMCPWVSVRVGV
YES
